Where do these numbers come from? They come from patent US10640457B2.

Biological target: HDAC6 (Homo sapiens)
Sequence (Q9UBN7 1-1215): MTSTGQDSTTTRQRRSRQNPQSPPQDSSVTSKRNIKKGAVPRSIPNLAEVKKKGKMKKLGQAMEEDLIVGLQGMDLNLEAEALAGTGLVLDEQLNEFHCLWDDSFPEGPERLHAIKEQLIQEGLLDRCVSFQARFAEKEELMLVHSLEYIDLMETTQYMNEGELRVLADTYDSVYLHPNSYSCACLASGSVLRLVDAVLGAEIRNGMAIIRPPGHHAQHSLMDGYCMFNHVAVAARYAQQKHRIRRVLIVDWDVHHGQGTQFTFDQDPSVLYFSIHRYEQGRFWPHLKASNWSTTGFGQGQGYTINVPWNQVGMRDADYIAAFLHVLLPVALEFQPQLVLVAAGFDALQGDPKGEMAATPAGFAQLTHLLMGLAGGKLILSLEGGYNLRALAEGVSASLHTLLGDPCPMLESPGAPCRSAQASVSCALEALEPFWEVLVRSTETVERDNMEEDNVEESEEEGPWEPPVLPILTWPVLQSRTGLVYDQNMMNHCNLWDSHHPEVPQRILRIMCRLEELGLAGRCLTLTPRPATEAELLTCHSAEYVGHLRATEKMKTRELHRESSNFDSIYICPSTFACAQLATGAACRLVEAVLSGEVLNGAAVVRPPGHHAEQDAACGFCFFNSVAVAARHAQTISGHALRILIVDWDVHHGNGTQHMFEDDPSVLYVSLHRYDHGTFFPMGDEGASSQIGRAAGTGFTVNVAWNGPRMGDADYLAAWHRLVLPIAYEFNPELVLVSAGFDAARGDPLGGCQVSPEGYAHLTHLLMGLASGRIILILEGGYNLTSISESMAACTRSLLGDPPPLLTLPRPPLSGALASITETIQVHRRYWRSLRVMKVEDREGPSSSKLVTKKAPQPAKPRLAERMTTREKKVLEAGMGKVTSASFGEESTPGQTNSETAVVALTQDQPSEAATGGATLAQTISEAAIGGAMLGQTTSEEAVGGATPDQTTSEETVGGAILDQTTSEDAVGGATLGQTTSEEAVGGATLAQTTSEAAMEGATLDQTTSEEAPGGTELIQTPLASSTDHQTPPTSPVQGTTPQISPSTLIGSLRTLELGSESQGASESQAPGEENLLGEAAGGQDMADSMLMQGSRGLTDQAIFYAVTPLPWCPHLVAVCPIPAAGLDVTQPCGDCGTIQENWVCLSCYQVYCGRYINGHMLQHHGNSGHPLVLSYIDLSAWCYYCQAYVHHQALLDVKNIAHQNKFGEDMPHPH
recorded-metric: IC50

# get_value(readout= IC50, system= HDAC6 (Homo sapiens)) for CCOc1cccc(OCCN(C)C)c1C(=O)Nc1ccc(Cl)c(C(F)(F)F)c1 [YF2]
> 200 µM

* * *

molecular target: CBP (Homo sapiens); construct: we will use the catalytic domain of human CBP, PCAF, p300 and GCNS (Enzo Life Sci., USA); test: In vitro HAT activation assay, CBP
Sequence (Q92793 1323-1700 limits assumed): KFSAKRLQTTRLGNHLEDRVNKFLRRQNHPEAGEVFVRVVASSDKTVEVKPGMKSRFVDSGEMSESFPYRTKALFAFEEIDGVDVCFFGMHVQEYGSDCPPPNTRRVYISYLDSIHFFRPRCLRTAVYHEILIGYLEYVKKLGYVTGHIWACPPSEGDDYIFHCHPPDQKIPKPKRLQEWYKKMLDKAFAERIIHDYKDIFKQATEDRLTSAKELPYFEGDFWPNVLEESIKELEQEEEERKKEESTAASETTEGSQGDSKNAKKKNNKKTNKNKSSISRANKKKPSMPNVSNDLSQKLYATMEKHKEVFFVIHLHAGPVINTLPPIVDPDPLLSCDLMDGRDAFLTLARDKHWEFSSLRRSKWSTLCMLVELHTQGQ
recorded-metric: pEC50
The read-out pEC50 is expressed as -log10 of concentration in moles per litre.

Fill blank: measured pEC50 of the compound `CCOc1cccc(OCCN(C)C)c1C(=O)Nc1ccc(Cl)c(C(F)(F)F)c1` is ____.
5.57

* * *

pIC50: −log10 of the molar value.
Quick note: these are pIC50 numbers for system: Sirtuin 2 (Homo sapiens)
Sequence (Q8IXJ6 whole entry): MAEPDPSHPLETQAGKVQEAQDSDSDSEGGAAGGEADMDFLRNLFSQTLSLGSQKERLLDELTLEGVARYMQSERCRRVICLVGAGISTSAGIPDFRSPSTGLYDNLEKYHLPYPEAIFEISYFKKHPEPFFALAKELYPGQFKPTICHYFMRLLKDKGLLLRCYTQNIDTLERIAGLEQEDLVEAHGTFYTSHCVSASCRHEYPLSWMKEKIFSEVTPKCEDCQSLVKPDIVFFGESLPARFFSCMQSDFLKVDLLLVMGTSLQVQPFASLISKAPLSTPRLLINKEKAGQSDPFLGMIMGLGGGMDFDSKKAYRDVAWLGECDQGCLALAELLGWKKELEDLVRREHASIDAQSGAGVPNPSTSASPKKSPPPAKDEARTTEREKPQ

Dear colleague, I am looking for the recorded pIC50 of the following molecule: O=C(CCCCCCC(=O)Nc1ccccc1)NO [SAHA, reference compound]
< 5.00

Input `CCOc1cccc(OCCN(C)C)c1C(=O)Nc1ccc(Cl)c(C(F)(F)F)c1`
< 3.70
